Target: T1, Human Id3: Histidine (human, UniProt Q02535 1-119 at identity 1.00))
T1 construct: Fusion protein made in E. coli from vector pGW07; also called h-Id3: His; Human Id3 (coated wells); not shown: His tag
T1 chain: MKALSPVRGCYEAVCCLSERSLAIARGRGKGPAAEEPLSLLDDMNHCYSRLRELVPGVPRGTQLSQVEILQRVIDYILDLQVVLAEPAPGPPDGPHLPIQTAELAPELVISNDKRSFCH
Experiment: ELISA, Ab 0.100 µg/ml
reported.property: A450 (A450)
I only need the number, in A450, no unit after it.

Fill in the blank: the reported A450 of rabbit monoclonal anti-mouse/human Id3, clone #BCH-4/#42-1 (antibody, V domains shown, Rabbit IgG from a rabbit hybridoma; also called m/h Id3 MoAb 42-1) VH: QSVEESGGRLVTPGTPLTLTCTASGFSLSSYYIHWVRQAPGKALEWIGYISDGGTTYYASWAKGRFTISKTSSTTVDLKMTSLTTEDTATYFCARQGFNIWGPGTLVTVSL VL: AVLTQTPSPVSAAVGGTVTISCQSSQSVYNNNWLSWFQQKSGQPPKLLIYETSKLESGVPSRFKGSGSGTQFTLTIIDVQCDDAATYYCLGGYWSTSDNNIFGGGTEVVVK is ____.
2.6

Fill in the blank: the reported A450 of rabbit monoclonal anti-mouse/human Id3, clone #BCH-4/#17-3 (antibody, V domains shown, Rabbit IgG from a rabbit hybridoma; also called m/h Id3 MoAb 17-3; BCH-3/#17-3) VH: QSVEESGGRLVTPGTPLTLTCTASGFSLSNVYIHWVRQAPGKGLEWIGYISDGDTARYATWAKGRFTISKTSSTTVNLKMTSLTTEDTATYFCARQGFNIWGPGTLVTVSL VL: AVLTQTPSPVSAAVGGTVSISCQSSQSVWNNNWLSWFQQKPGQPPKLLIYETSKLESGVPSRFKGSGSGTQFTLTISDVQCDDAATYYCLGGYWTTSDNNVFGGGTEVVVK is ____.
2.6

Fill in the blank: the reported A450 of rabbit monoclonal anti-mouse/human Id3, clone #BCH-4/#6-1 (antibody, V domains shown, Rabbit IgG from a rabbit hybridoma; also called m/h Id3 MoAb 6-1) VH: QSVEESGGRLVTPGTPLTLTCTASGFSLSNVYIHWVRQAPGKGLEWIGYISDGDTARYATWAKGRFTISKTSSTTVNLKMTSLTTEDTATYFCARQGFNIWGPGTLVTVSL VL: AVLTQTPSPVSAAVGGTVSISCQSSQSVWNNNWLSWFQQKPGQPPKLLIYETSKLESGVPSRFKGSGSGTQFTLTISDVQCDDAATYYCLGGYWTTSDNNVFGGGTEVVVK is ____.
2.36

FYI, the data here is from patent US20070178531A1.
